This collection of values is drawn from the Immune Epitope Database (IEDB).

MEASURED TARGET: HLA-B*83:01
PROCEDURE TEXT: IEDB peptide-MHC binding, purified MHC/competitive/fluorescence; filed as Kd, often an IC50 or EC50 that approximates it; bounds were set here for any values at or beyond the usual limits of such assays
PARTICULARS: source organism: Acetivibrio thermocellus ATCC 27405
RESULT TYPE: Kd

Enquiry: # get_value(readout='Kd', item= `TVIDVNTGK` )
Return: ≥ 5 µM

====

MEASURED TARGET: HLA-A*24:02
PROCEDURE TEXT: IEDB peptide-MHC binding, purified MHC/direct/fluorescence; filed as Kd, often an IC50 or EC50 that approximates it; bounds were set here for any values at or beyond the usual limits of such assays
PARTICULARS: source organism: Influenza A virus (A/camel/Mongolia/1982(H1N1))
RESULT TYPE: Kd

EKFFPSSSY: ≥ 20 µM

Enquiry: Fill in: Kd of `KFFPSSSYR` is ___
Return: ≥ 20 µM

====

MEASURED TARGET: HLA-A*03:01
PROCEDURE TEXT: IEDB peptide-MHC binding, purified MHC/direct/fluorescence; filed as Kd, often an IC50 or EC50 that approximates it; bounds were set here for any values at or beyond the usual limits of such assays
PARTICULARS: source organism: Limestone Canyon virus
RESULT TYPE: Kd

Enquiry: Recorded Kd of `KARNIISPV` , please.
Return: ≥ 20 µM

====

MEASURED TARGET: HLA-B*48:01
PROCEDURE TEXT: IEDB peptide-MHC binding, purified MHC/direct/fluorescence; filed as Kd, often an IC50 or EC50 that approximates it; bounds were set here for any values at or beyond the usual limits of such assays
PARTICULARS: source organism: Vibrio parahaemolyticus
pKd: −log10 of the molar value.
RESULT TYPE: pKd

Enquiry: Give its pKd value. Item: `VFMDNAFKK`
Return: ≤ 4.70

====

MEASURED TARGET: HLA-B*51:01
PROCEDURE TEXT: IEDB peptide-MHC binding, purified MHC/competitive/fluorescence; filed as Kd, often an IC50 or EC50 that approximates it; bounds were set here for any values at or beyond the usual limits of such assays
PARTICULARS: source organism: Yersinia pestis Nepal516
RESULT TYPE: pKd
pKd field: float, defined as -log10 of concentration (mol/L).

Enquiry: Please report the recorded pKd for `MPLKVQVCI` .
Return: 5.90

====

MEASURED TARGET: HLA-A*02:12
PROCEDURE TEXT: IEDB peptide-MHC binding, purified MHC/direct/fluorescence; filed as Kd, often an IC50 or EC50 that approximates it; bounds were set here for any values at or beyond the usual limits of such assays
PARTICULARS: source organism: Giardia lamblia ATCC 50803
RESULT TYPE: Kd

Enquiry: Short answer please: Kd, HLA-A*02:12, entry `RIYDPLWFQ`
Return: ≥ 20 µM

====

Reported pKd values for a set of sequences
MEASURED TARGET: HLA-B*44:02
PROCEDURE TEXT: IEDB peptide-MHC binding, purified MHC/competitive/radioactivity; filed as Kd, often an IC50 or EC50 that approximates it; bounds were set here for any values at or beyond the usual limits of such assays
PARTICULARS: source organism: Dengue virus 4 Philippines/H241/1956
pKd (log units): -log10 of the concentration in mol/L.

HEMYWVSGV: 7.29

Let us examine a further case.
Enquiry: For the sequence shown here, `TEPEDIDCW` , give the reported pKd.
Return: 5.94
